ASSAY SUMMARY: Efflux ratio of apparent permeability across basolateral to apical over apical to basolateral side in MDCK-MDR1 cells at 10 uM incubated for 30 to 90 mins
Type: ADME, cell-based, Canis lupus familiaris
CONDITION INFO: dog, time 30-90 min

>  <COMPOUND>
O=C(Nc1ccc(-c2nc(-c3ccc(Cl)cc3)no2)cc1)C1CC(=O)N(Cc2ccco2)C1 (stereo unspecified)

>  <efflux ratio at 10 µM>
1

$$$$

---

ASSAY SUMMARY: AUClast in female Wistar rat plasma at 10 mg/kg, ip administrated as single dose and measured 24 hrs post dose by LC-MS/MS analysis
Assay type: ADME, organism-based
READOUT KIND: AUC(0-t) at 24 h (ng·h/mL)

>  <SMILES NOTATION>
O=C(Nc1ccc(-c2nc(-c3ccc(Cl)cc3)no2)cc1)[C@@H]1CC(=O)N(C[C@@H]2CCCNC2)C1

>  <READOUT KIND>
AUC(0-t) at 24 h

>  <UNIT SYMBOL>
ng·h/mL

>  <MEASURED>
8130

$$$$

---

ASSAY SUMMARY: AUClast in male Wistar rat brain at 10 mg/kg, ip measured 24 hrs post dose by LC-MS/MS analysis
Type: ADME, organism-based

>  <SMILES NOTATION>
O=C(Nc1ccc(-c2nc(-c3ccc(Cl)cc3)no2)cc1)[C@@H]1CC(=O)N(C[C@@H]2CCCNC2)C1

>  <AUC(0-t) at 24 h / ng·h/mL>
3270

$$$$

---

molecules and their reported IC50
TGT: Relaxin-3 receptor 1 (Homo sapiens)
Sequence (Q9NSD7 whole entry): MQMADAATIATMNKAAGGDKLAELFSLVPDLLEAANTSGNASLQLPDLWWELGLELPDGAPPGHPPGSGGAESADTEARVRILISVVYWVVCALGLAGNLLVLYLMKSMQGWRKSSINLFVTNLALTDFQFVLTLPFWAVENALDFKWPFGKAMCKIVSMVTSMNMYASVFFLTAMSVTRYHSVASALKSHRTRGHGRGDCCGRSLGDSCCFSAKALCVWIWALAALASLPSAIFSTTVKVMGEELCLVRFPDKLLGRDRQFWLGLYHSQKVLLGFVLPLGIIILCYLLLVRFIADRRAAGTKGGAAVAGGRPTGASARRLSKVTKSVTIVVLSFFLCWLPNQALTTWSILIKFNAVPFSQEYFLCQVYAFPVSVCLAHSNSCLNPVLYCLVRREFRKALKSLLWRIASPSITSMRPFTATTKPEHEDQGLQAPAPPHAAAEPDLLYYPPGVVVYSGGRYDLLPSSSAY
ASSAY SUMMARY: Negative allosteric modulation of human RXFP3 receptor expressed in CHO-K1 cell membrane assessed as inhibition of relaxin-3-induced stimulation of [35S]GTPgammaS binding followed by relaxin-3 addition and measured after 1 hr
Format: functional, cell membranes
READOUT KIND: IC50 (nM)

>  <MOLECULE>
CNCCC(=O)Nc1ccc(-c2nc(-c3ccc(Cl)cc3)no2)cc1

>  <MEASURED>
1050

$$$$
>  <MOLECULE>
CNCCCN1CC(C(=O)Nc2ccc(-c3nc(-c4ccc(Cl)cc4)no3)cc2)CC1=O (stereo not given)

>  <MEASURED>
1180

$$$$
>  <MOLECULE>
O=C(Nc1ccc(-c2nc(-c3ccc(Cl)cc3)no2)cc1)C1CC(=O)N(Cc2ccco2)C1 (stereo not given)

>  <MEASURED>
3020

$$$$
>  <MOLECULE>
O=C(Nc1ccc(-c2nc(-c3ccc(Cl)cc3)no2)cc1)C1CC(=O)N(CC2CCNCC2)C1 (stereo not given)

>  <MEASURED>
710

$$$$
>  <MOLECULE>
CNCC(=O)Nc1ccc(-c2nc(-c3ccc(Cl)cc3)no2)cc1

>  <MEASURED>
2630

$$$$
>  <MOLECULE>
CNCCCC(=O)Nc1ccc(-c2nc(-c3ccc(Cl)cc3)no2)cc1

>  <MEASURED>
2090

$$$$
>  <MOLECULE>
O=C(Nc1ccc(-c2nc(-c3ccc(Cl)cc3)no2)cc1)C1CC(=O)N(CC2CCNC2)C1 (racemic)

>  <MEASURED>
1700

$$$$
>  <MOLECULE>
NCCN1CC(C(=O)Nc2ccc(-c3nc(-c4ccc(Cl)cc4)no3)cc2)CC1=O (stereo not given)

>  <MEASURED>
1450

$$$$
>  <MOLECULE>
O=C(Nc1ccc(-c2nc(-c3ccc(Cl)cc3)no2)cc1)C1CC(=O)N(CC2CCCCN2)C1 (racemic)

>  <MEASURED>
960

$$$$
>  <MOLECULE>
O=C(Nc1ccc(-c2nc(-c3ccc(Cl)cc3)no2)cc1)C1CC(=O)N(Cc2cccnc2)C1 (stereo not given)

>  <MEASURED>
2630

$$$$

---

ASSAY SUMMARY: Metabolic stability in rat liver microsomes assessed as clearance measured up to 45 mins by LC-MS/MS analysis
Type: ADME, Microsome
CONDITION INFO: 0.75 h
molecules and their reported CLH

>  <MOLECULE>
O=C(Nc1ccc(-c2nc(-c3ccc(Cl)cc3)no2)cc1)[C@@H]1CC(=O)N(C[C@@H]2CCCNC2)C1

>  <CLH [µL/min/mg]>
6.8

$$$$
>  <MOLECULE>
O=C(Nc1ccc(-c2nc(-c3ccc(Cl)cc3)no2)cc1)C1CC(=O)N(Cc2ccco2)C1 (configuration not stated)

>  <CLH [µL/min/mg]>
132

$$$$

---

TGT: Relaxin-3 receptor 2 (Homo sapiens)
Sequence (Q8TDU9 whole entry): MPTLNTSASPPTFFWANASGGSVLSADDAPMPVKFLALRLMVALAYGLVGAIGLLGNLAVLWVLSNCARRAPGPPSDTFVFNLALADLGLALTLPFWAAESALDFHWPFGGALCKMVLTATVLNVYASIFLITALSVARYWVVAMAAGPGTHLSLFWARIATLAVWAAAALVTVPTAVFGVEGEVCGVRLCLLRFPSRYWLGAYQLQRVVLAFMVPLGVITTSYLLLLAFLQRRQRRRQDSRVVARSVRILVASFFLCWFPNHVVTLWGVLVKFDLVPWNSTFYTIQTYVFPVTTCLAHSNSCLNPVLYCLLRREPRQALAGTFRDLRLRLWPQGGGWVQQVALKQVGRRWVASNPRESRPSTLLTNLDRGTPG
ASSAY SUMMARY: Negative allosteric modulation of human RXFP4 receptor expressed in CHO-K1 cells assessed as cAMP accumulation incubated for 30 mins by TR-FRET assay
molecules and their reported IC50
READOUT KIND: IC50

>  <MOLECULE>
CNCCN1CCC(C(=O)Nc2ccc(-c3nc(-c4ccc(Cl)cc4)no3)cc2)CC1

>  <READOUT KIND>
IC50

>  <MEASURED>
14.3 µM

$$$$
>  <MOLECULE>
O=C(Nc1ccc(-c2nc(-c3ccc(Cl)cc3)no2)cc1)[C@@H]1CC(=O)N(C[C@@H]2CCCNC2)C1

>  <READOUT KIND>
IC50

>  <MEASURED>
> 100 µM

$$$$
>  <MOLECULE>
CNCCC(=O)Nc1ccc(-c2nc(-c3ccc(Cl)cc3)no2)cc1

>  <READOUT KIND>
IC50

>  <MEASURED>
4.87 µM

$$$$
>  <MOLECULE>
CNCCN1CC(C(=O)Nc2ccc(-c3nc(-c4ccc(Cl)cc4)no3)cc2)CC1=O (centres undefined)

>  <READOUT KIND>
IC50

>  <MEASURED>
34.3 µM

$$$$

---

ASSAY SUMMARY: Apparent permeability of compound across basolateral to apical side in MDCK-MDR1 cells at 10 uM incubated for 30 to 90 mins
Format: ADME, cell-based, Canis lupus familiaris
CONDITION INFO: dog, MDCK-MDR1, time 30-90 min

>  <COMPOUND>
O=C(Nc1ccc(-c2nc(-c3ccc(Cl)cc3)no2)cc1)C1CC(=O)N(Cc2ccco2)C1 (stereo unspecified)

>  <UNIT SYMBOL>
×10⁻⁶ cm/s

>  <Papp B→A at 10 µM>
1.3

$$$$
